target: MMP-13CD (catalytic domain of collagenase 3) (Homo sapiens, UniProt P45452); test: biochemical;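 note: inhibition of enzymatic thiopeptolide substrate cleavage (100 µM) in pH 6.0 MES buffer with CaCl2 and DTNB, comparing hydrolysis with versus without inhibitor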
pIC50: −log10 of the molar value.
ENDPOINT_NAME: pIC50

{"MOLECULE": "O=C(OCc1ccncc1)c1ccc2[nH]c(=O)n(Cc3ccccc3)c(=O)c2c1 [Synthesis Example 43]", "ASSAY_TARGET": "MMP-13CD (catalytic domain of collagenase 3) (Homo sapiens, UniProt P45452)", "pIC50": 7.96}

1. COC(=O)c1ccc(Cn2c(=O)c3cc(C(=O)NCc4ccc(OC)cc4)ccc3n(C)c2=O)cc1 [Synthesis Example 38]
2. COc1ccc(CNC(=O)c2cnc3c(c2)c(=O)n(Cc2ccc(F)cc2)c(=O)n3C)cc1 [Synthesis Example 52]
Problem: Compare reported pIC50 values for 1 and 2 . Which is lower? When you have decided, please share the label of that item.
Result: 2
(2: 7.49, 1: 8.40)

###

molecular target: MMP-1FL (full-length interstitial collagenase) (Homo sapiens); experiment: Thiopeptolide hydrolysis assay, MMP-1; assay type: biochemical; conditions: Table II; read-out: MMP01 IC50
Sequence (P03956 100-469): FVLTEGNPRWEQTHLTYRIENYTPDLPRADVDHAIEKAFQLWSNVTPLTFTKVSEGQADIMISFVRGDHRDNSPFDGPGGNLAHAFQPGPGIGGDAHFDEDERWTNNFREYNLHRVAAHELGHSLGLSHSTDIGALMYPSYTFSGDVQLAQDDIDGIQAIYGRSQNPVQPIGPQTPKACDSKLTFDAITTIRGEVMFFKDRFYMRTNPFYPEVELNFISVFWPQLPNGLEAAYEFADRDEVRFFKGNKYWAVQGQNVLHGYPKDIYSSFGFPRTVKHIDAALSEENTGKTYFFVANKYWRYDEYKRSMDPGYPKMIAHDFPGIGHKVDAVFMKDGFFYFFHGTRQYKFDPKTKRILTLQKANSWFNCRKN
pIC50: −log10 of the molar value.
pIC50 reference

Illustrative cases are given below, each with its answer.
{"SMILES_STR": "COc1ccc(CNC(=O)c2cccc(C(=O)NCc3ccccc3)c2)cc1", "ASSAY_TARGET": "MMP-1FL (full-length interstitial collagenase) (Homo sapiens)", "pIC50": "< 4.00"}
{"SMILES_STR": "CCOc1ccc(C(=O)NCc2ccc3c(c2)OCO3)cc1C(=O)NCc1ccc2c(c1)OCO2", "ASSAY_TARGET": "MMP-1FL (full-length interstitial collagenase) (Homo sapiens)", "pIC50": 4.29}

Problem: Could you tell me which pIC50 is on file for O=C(OCc1cccc(F)c1)c1cccc(C(=O)OCc2cccc(F)c2)c1 ?
Result: < 4.00

Problem: Find the recorded pIC50 belonging to COc1ccc(CNC(=O)c2ccc(OC)c(C(=O)NCc3ccc(OC)cc3)c2)cc1 and report it.
Result: < 4.00

Problem: Fill in: pIC50 of COc1ccc(C(=O)OCc2ccccc2)cc1C(=O)OCc1ccccc1 is ___
Result: < 4.00

Problem: So what does the record say about pIC50 for O=C(NCc1cccnc1)c1cccc(C(=O)NCc2ccc3c(c2)OCO3)c1 ?
Result: < 4.00

Problem: If you can, please state the reported pIC50 value of O=C(NCc1ccc(Cl)cc1)c1cccc(C(=O)NCc2ccc(Cl)cc2)c1 .
Result: 4.10

Problem: Would you mind telling me what pIC50 value was observed for COc1cccc(CNC(=O)c2cccc(C(=O)NCc3cccc(N)c3)c2)c1 ?
Result: < 4.00

###

biological target: MMP-3CD (catalytic domain of stromelysin) (Homo sapiens, UniProt P08254); experiment: Thiopeptolide hydrolysis assay, MMP-3; assay type: biochemical; conditions: Table 1b; read-out: MMP03 IC50;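 note: inhibition of thiopeptolide substrate (100 µM) cleavage by the MMP-3 catalytic domain, detected with DTNB at pH 6.0 with CaCl2, hydrolysis compared against runs lacking inhibitor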
Sequence (P08254 100-272 limits assumed): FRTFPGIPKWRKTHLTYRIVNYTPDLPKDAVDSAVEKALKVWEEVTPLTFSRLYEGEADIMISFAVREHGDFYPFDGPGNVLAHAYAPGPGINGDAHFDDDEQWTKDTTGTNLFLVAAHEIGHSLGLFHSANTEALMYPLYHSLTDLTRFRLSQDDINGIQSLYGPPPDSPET
Where a name gives a salt, the structure may show the parent alone.
ENDPOINT_NAME: IC50

Sample records with IC50:
{"COMPOUND": "COC(=O)c1ccc(Cn2c(=O)c(C)c3sc(C(=O)NCc4ccc(F)cc4)cn3c2=O)cc1Cl", "ENDPOINT_NAME": "IC50", "DATA_VALUE": "> 30 µM"}
{"COMPOUND": "Cc1c(=O)n(Cc2cccc(C#N)c2)c(=O)n2cc(C(=O)NCc3ccncc3)sc12 [hydrochloride]", "ENDPOINT_NAME": "IC50", "DATA_VALUE": "> 30 µM"}
{"COMPOUND": "Cc1c(=O)n(Cc2ccc(C(=O)OCCN(C)C)cc2)c(=O)n2cc(C(=O)NCc3ccc(F)cc3)sc12", "ENDPOINT_NAME": "IC50", "DATA_VALUE": "> 30 µM"}
{"COMPOUND": "COC(=O)c1ccc(Cn2c(=O)c(C)c3sc(C(=O)NCc4ccc(F)cc4)cn3c2=O)cc1", "ENDPOINT_NAME": "IC50", "DATA_VALUE": "17 µM"}
{"COMPOUND": "O=C(NCc1ccccc1)c1cn2c(=O)n(Cc3ccncc3)c(=O)cc2s1 [hydrochloride]", "ENDPOINT_NAME": "IC50", "DATA_VALUE": "> 100 µM"}
{"COMPOUND": "O=C(NCc1ccc(Cl)c(Cl)c1)c1cn2c(=O)n(Cc3ccc(Cl)cc3)c(=O)cc2s1", "ENDPOINT_NAME": "IC50", "DATA_VALUE": "> 100 µM"}
{"COMPOUND": "Cc1c(=O)n(Cc2ccccc2)c(=O)n2cc(C(=O)NCc3ccc(Cl)c(Cl)c3)sc12", "ENDPOINT_NAME": "IC50", "DATA_VALUE": "20 µM"}
{"COMPOUND": "Cc1c(=O)n(Cc2ccccc2)c(=O)n2cc(C(=O)NCc3cccc(F)c3)sc12", "ENDPOINT_NAME": "IC50", "DATA_VALUE": "> 30 µM"}

Problem: Using the record for Cc1c(=O)n(Cc2ccc(C#N)cc2)c(=O)n2cc(C(=O)NCc3ccc(F)cc3)sc12 , report its IC50.
Result: 25 µM
